Just for reference, PubChem BioAssay AID1159580 is where these values come from.

- test.details: chemical genetic growth profiling, strain panel (AID 1159580);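 note: tested at 20 µM; growth read once vehicle control cultures reached saturation at 30 °C; 1 = growth at the plate median or of vehicle wells; lower values mean less growth of the strain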
- condition.description: S. cerevisiae deletion strains, growth OD, locus YNL322C, strain KRE1 (second series), hits give low values
Among all 5,500 compounds or so, about 2,000 (36%) were called active. Another 18% or so got no clear call; they are omitted. The list shows a part of the results.
Decide using normalized growth alone. Strictly below 1: 1 (yes). Equal to or above 1: 0 (no).

Request: normalized growth under 1? Item: C/C=C(/C)C(=O)OC1CCC2(C)C3CCC4C5(O)CC(O)C6(O)C(CN7CC(C)CCC7C6(C)O)C5(O)CC42OC13O (configuration not stated)
Result: 0 (no)

Request: normalized growth under 1? Item: COc1cccc2c1C(=O)c1c(O)c3c(c(O)c1C2=O)C[C@@](O)(C(=O)CO)C[C@@H]3OC1C[C@H](N)[C@H](O)[C@H](C)O1 (some centres not stated)
Result: 1 (yes)

###

Exercise: for every item that follows, state its recorded normalized growth.
- test.details: chemical genetic growth profiling, strain panel (AID 1159580);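 note: tested at 20 µM; growth read once vehicle control cultures reached saturation at 30 °C; 1 = growth at the plate median or of vehicle wells; lower values mean less growth of the strain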
- condition.description: S. cerevisiae deletion strains, growth OD, locus YLR320W, strain mms22, hits give low values
Hit rate of the full screen: of about 5,500 compounds, about 2,000 (36%) were called active. Another 18% or so got no clear call; they are omitted. This is one part of the list.
Write the value as a bare number.

Request: What does the data say about its normalized growth? Entry: COC(=O)C[C@H]1C(C)(C)C(=O)[C@@H]2CC3C4=CC(=O)O[C@@H](c5ccoc5)[C@]4(C)CCC3[C@@]1(C)C2=O (stereo partly specified)
Result: 0.982

Request: What does the data say about its normalized growth? Entry: CCOP(=S)(OCC)Oc1nc(Cl)c(Cl)cc1Cl
Result: 0.828

Request: What does the data say about its normalized growth? Entry: CC(C)(Oc1ccc(CCNC(=O)c2ccc(Cl)cc2)cc1)C(=O)O
Result: 0.978

Request: What does the data say about its normalized growth? Entry: C#C[C@]1(OC(C)=O)CCC2C3CCC4=CC(=O)CC[C@@H]4C3CC[C@@]21C (stereo partly specified)
Result: 0.969

Request: What does the data say about its normalized growth? Entry: NNC(=O)c1ccncc1
Result: 0.986

Request: What does the data say about its normalized growth? Entry: Cc1ccc(-c2cc(C(F)(F)F)nn2-c2ccc(S(N)(=O)=O)cc2)cc1
Result: 1.04

###

- test.details: chemical genetic growth profiling, strain panel (AID 1159580);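 note: tested at 20 µM; growth read once vehicle control cultures reached saturation at 30 °C; 1 = growth at the plate median or of vehicle wells; lower values mean less growth of the strain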
- condition.description: S. cerevisiae deletion strains, growth OD, locus YBR136W, strain MEC1, hits give low values
Hit rate of the full screen: of about 5,500 compounds, about 2,000 (36%) were called active. Not shown: some 18% with an inconclusive outcome. The list shows a part of the results.
Exercise: for every item that follows, state its recorded normalized growth.

Request: What does the data say about its normalized growth? Entry: OC1CCN(c2cc(C(F)(F)F)nc3cc(Cl)cc(Cl)c23)CC1
Result: 0.978 (inactive)

Request: What does the data say about its normalized growth? Entry: O=[N+]([O-])c1ccc(S(=O)(=O)c2ccccc2)nc1S(=O)(=O)c1ccccc1
Result: 0.93 (inactive)

Request: What does the data say about its normalized growth? Entry: S=C(NNC(=S)NC1CC2C=CC1C2)Nc1ccc(Br)c(Cl)c1 (centres undefined)
Result: 0.976 (inactive)

Request: What does the data say about its normalized growth? Entry: O=C(NCCNc1ncc(Cl)cc1C(F)(F)F)C(F)(F)Sc1ccccc1
Result: 0.984 (inactive)

Request: What does the data say about its normalized growth? Entry: O=C(NCC1COc2ccccc2O1)c1ccc(Cl)cc1 (centres undefined)
Result: 0.957 (inactive)

Request: What does the data say about its normalized growth? Entry: CC(C)Cc1ccc(C(C)C(=O)Nc2nn(C)c3ccccc23)cc1 (centres undefined)
Result: 0.99 (inactive)

Request: What does the data say about its normalized growth? Entry: Nc1ccc(Sc2ccccc2)nc1Sc1ccccc1
Result: 0.957 (inactive)

Request: What does the data say about its normalized growth? Entry: O=C(Nc1ccccc1Sc1ccc([N+](=O)[O-])cc1[N+](=O)[O-])C(Cl)(Cl)Cl
Result: 0.97 (inactive)

Request: What does the data say about its normalized growth? Entry: O=[N+]([O-])c1cnc(Sc2nnc(SCc3cccc(C(F)(F)F)c3)s2)s1
Result: 0.0945 (active)

Request: What does the data say about its normalized growth? Entry: Cc1nc(-c2ccccn2)[nH]c(=O)c1Cc1c(Cl)cccc1Cl
Result: 0.954 (inactive)

Request: What does the data say about its normalized growth? Entry: Nc1ccccc1C(=O)N/N=C\c1cc(Br)ccc1O
Result: 0.982 (inactive)

Request: What does the data say about its normalized growth? Entry: Cc1csc(NC(=O)Nc2ccc(C(F)(F)F)cc2)c1
Result: 0.98 (inactive)

Request: What does the data say about its normalized growth? Entry: O=C(CSCc1csc2ccccc12)Nc1ccc(F)c(Cl)c1
Result: 0.981 (inactive)

Request: What does the data say about its normalized growth? Entry: CCOC(=O)c1cc(CC)sc1NC(=O)c1ccc([N+](=O)[O-])o1
Result: 0.999 (inactive)

Request: What does the data say about its normalized growth? Entry: COc1ccc2nc3ccccc3c(N)c2c1
Result: 0.657 (active)

Request: What does the data say about its normalized growth? Entry: S=C(Nc1ccc(Cl)cc1)SCc1c(Cl)cccc1Cl
Result: 0.996 (inactive)

Request: What does the data say about its normalized growth? Entry: O=S(=O)(NC(=S)Nc1ccc(Cl)c(Cl)c1)c1ccccc1
Result: 1 (inactive)

Request: What does the data say about its normalized growth? Entry: N#Cc1c2ccccc2nc2ccccc12
Result: 0.827 (active)

Request: What does the data say about its normalized growth? Entry: Cc1nc(-c2ccccn2)nc(SCc2ccccc2)c1Cl
Result: 0.94 (inactive)

Request: What does the data say about its normalized growth? Entry: O=S(=O)(c1ccc(Cl)cc1)N(Cc1cccnc1)Cc1ccc(Cl)cc1Cl
Result: 0.95 (inactive)

Request: What does the data say about its normalized growth? Entry: Cc1oc(C(C)(C)C)cc1-c1cc(N)n(-c2ccc(I)cc2)n1
Result: 0.992 (inactive)

Request: What does the data say about its normalized growth? Entry: C=CCc1c(CCC)nc(-c2ccccn2)[nH]c1=O
Result: 0.933 (inactive)

Request: What does the data say about its normalized growth? Entry: Cc1nc(-c2ccccn2)nc(N(C)Cc2ccccc2)c1Cl
Result: 0.955 (inactive)

Request: What does the data say about its normalized growth? Entry: Brc1ccc2[nH]c3c(c2c1)CCC3
Result: 0.945 (inactive)
